Hello, the source for this data is PubChem BioAssay AID2060505, in case you need it.

# Test system: 633275-114-R-J1-PDC complex spheroids, viability
# procedure.text: Anticancer human tumor 633275-114-R-J1-PDC patient-derived endometrial adenocarcinoma cell line growth inhibition [GQUAD]
# experimental.parameters: second compound 0.1 µM; first compound 0.00316 µM; stronger effect = lower value
Listing of recorded viability, T/C by entry.
Number in %, nothing else.

// worked examples, viability, T/C included
# molecule, viability, T/C (%)
rows = [
    ("CCc1c2c(nc3ccc(O)cc13)-c1cc3c(c(=O)n1C2)COC(=O)[C@]3(O)CC + CN(C)c1ccc(Nc2c3ccc(NC(=O)CCN4CCCC4)cc3nc3cc(NC(=O)CCN4CCCC4)ccc23)cc1", 44.2),
    ("Cc1[nH]c2ccccc2c1CCNCc1ccc(/C=C/C(=O)NO)cc1 + Cc1cnc(CNC(=O)c2c(=O)c3ccc(N4CCCN(C)CC4)nc3n3c2sc2ccccc23)cn1", 48),
    ("CC[C@@]1(O)C(=O)OCc2c1cc1n(c2=O)Cc2cc3c(CN(C)C)c(O)ccc3nc2-1 + Cc1cnc(CNC(=O)c2c(=O)c3ccc(N4CCCN(C)CC4)nc3n3c2sc2ccccc23)cn1", 47.6),
]

Continue with the molecule presented below.
For record CC[C@@]1(O)C(=O)OCc2c1cc1n(c2=O)Cc2cc3c(CN(C)C)c(O)ccc3nc2-1 + Cc1[nH]c2ccc(F)cc2c1-c1nc2c3cccnc3c3ncccc3c2[nH]1 the listed viability, T/C is 93.6

====

# Tested on: 633275-114-R-J1-PDC complex spheroids, viability
# procedure.text: Anticancer human tumor 633275-114-R-J1-PDC cell line growth inhibition [GQUAD];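 note: spheroids exposed to the agents for seven days; percent of DMSO vehicle control viability which is 100%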
# experimental.parameters: second compound 0.0316 µM; first compound 3.16 µM; stronger effect = lower value
Listing of recorded viability, T/C by entry.
Number in %, nothing else.

# compound, viability, T/C, %
records = [
    ("CC(C)(O)C1CCC(Nc2ccc3ncc(-c4cccc(C(F)(F)F)c4)n3n2)CC1 (stereo not given) + CN(C)c1ccc(Nc2c3ccc(NC(=O)CCN4CCCC4)cc3nc3cc(NC(=O)CCN4CCCC4)ccc23)cc1", 28.8),
    ("CC1COCCN1c1cc(C2(O)CC3CCC(C2)O3)c2cnn(-c3ccn[nH]3)c2n1 (stereo not given) + CN(C)c1ccc(Nc2c3ccc(NC(=O)CCN4CCCC4)cc3nc3cc(NC(=O)CCN4CCCC4)ccc23)cc1", 13.6),
    ("COc1ccc([C@@H](O)c2cc(-c3ncnc4cc(N5CCOCC5)ccc34)c(F)cc2Cl)nn1 + Cc1[nH]c2ccc(F)cc2c1-c1nc2c3cccnc3c3ncccc3c2[nH]1", 58),
    ("O=C(c1cc(Cc2n[nH]c(=O)c3ccccc23)ccc1F)N1CCN(C(=O)C2CC2)CC1 + CN(C)c1ccc(Nc2c3ccc(NC(=O)CCN4CCCC4)cc3nc3cc(NC(=O)CCN4CCCC4)ccc23)cc1", 81.6),
]

For record C=CC(=O)N1CCN(c2nc(=O)n(-c3c(C)ccnc3C(C)C)c3nc(-c4c(O)cccc4F)c(F)cc23)C(C)C1 (stereo not given) + Cc1[nH]c2ccc(F)cc2c1-c1nc2c3cccnc3c3ncccc3c2[nH]1 the listed viability, T/C is 104

====

# Tested on: 633275-114-R-J1-PDC complex spheroids, viability
# procedure.text: Anticancer human tumor 633275-114-R-J1-PDC cell line growth inhibition [GQUAD];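 note: spheroids exposed to the agents for seven days; percent of DMSO vehicle control viability which is 100%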
# experimental.parameters: second compound 1 µM; first compound 3.16 µM; stronger effect = lower value
Param label: returns MET when viability, T/C < 40%, returns NOT MET otherwise, including exact equality.

Consider the following illustrative entries.
# compound, discrete.label
records = [
    ("CC1COCCN1c1cc(C2(S(C)(=N)=O)CC2)nc(-c2ccnc3[nH]ccc23)n1 (stereo not given) + Cc1[nH]c2ccc(F)cc2c1-c1nc2c3cccnc3c3ncccc3c2[nH]1", "NOT MET"),
    ("COc1ccc([C@@H](O)c2cc(-c3ncnc4cc(N5CCOCC5)ccc34)c(F)cc2Cl)nn1 + Cc1[nH]c2ccc(F)cc2c1-c1nc2c3cccnc3c3ncccc3c2[nH]1", "NOT MET"),
    ("COc1cc(C2c3cc4c(cc3C(OC3OC5COC(C)OC5C(O)C3O)C3COC(=O)C23)OCO4)cc(OC)c1O (stereo not given) + Cc1[nH]c2ccc(F)cc2c1-c1nc2c3cccnc3c3ncccc3c2[nH]1", "MET"),
    ("O=C(c1cc(Cc2n[nH]c(=O)c3ccccc23)ccc1F)N1CCN(C(=O)C2CC2)CC1 + CN(C)c1ccc(Nc2c3ccc(NC(=O)CCN4CCCC4)cc3nc3cc(NC(=O)CCN4CCCC4)ccc23)cc1", "NOT MET"),
]

## Task Would you kindly verify if viability, T/C of Nc1ccn(C2OC(CO)C(O)C2(F)F)c(=O)n1 (stereo not given) + CN(C)c1ccc(Nc2c3ccc(NC(=O)CCN4CCCC4)cc3nc3cc(NC(=O)CCN4CCCC4)ccc23)cc1 is strictly less than 40%?
## Result MET

====

# Tested on: 633275-114-R-J1-PDC complex spheroids, viability
# procedure.text: Anticancer human tumor 633275-114-R-J1-PDC cell line growth inhibition [GQUAD];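 note: spheroids exposed to the agents for seven days; percent of DMSO vehicle control viability which is 100%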
# experimental.parameters: second compound 1 µM; first compound 3.16 µM; stronger effect = lower value
endpoint.label: viability, T/C (%)
Number in %, nothing else.

// worked examples, viability, T/C included
# compound, target.desc, quantitative.result
records = [
    ("CC1COCCN1c1cc(-c2ccnn2C)c2ccnc(-c3ccn[nH]3)c2n1 (stereo unspecified) + Cc1cnc(CNC(=O)c2c(=O)c3ccc(N4CCCN(C)CC4)nc3n3c2sc2ccccc23)cn1", "633275-114-R-J1-PDC complex spheroids, viability", 15.4),
    ("O=C(NO)c1cnc(N2CCN(S(=O)(=O)c3ccc4ccccc4c3)CC2)nc1 + Cc1[nH]c2ccc(F)cc2c1-c1nc2c3cccnc3c3ncccc3c2[nH]1", "633275-114-R-J1-PDC complex spheroids, viability", 17.2),
    ("CC1COCCN1c1cc(-c2ccnn2C)c2ccnc(-c3ccn[nH]3)c2n1 (stereo unspecified) + Cc1[nH]c2ccc(F)cc2c1-c1nc2c3cccnc3c3ncccc3c2[nH]1", "633275-114-R-J1-PDC complex spheroids, viability", 23),
    ("COc1cc(C2c3cc4c(cc3C(OC3OC5COC(C)OC5C(O)C3O)C3COC(=O)C23)OCO4)cc(OC)c1O (stereo unspecified) + Cc1cnc(CNC(=O)c2c(=O)c3ccc(N4CCCN(C)CC4)nc3n3c2sc2ccccc23)cn1", "633275-114-R-J1-PDC complex spheroids, viability", 34.1),
    ("CC(C)(O)C1CCC(Nc2ccc3ncc(-c4cccc(C(F)(F)F)c4)n3n2)CC1 (stereo unspecified) + Cc1cnc(CNC(=O)c2c(=O)c3ccc(N4CCCN(C)CC4)nc3n3c2sc2ccccc23)cn1", "633275-114-R-J1-PDC complex spheroids, viability", 16.5),
]

Continue with the compound presented below.
For record O=c1[nH]cc(F)c(=O)[nH]1 + CN(C)c1ccc(Nc2c3ccc(NC(=O)CCN4CCCC4)cc3nc3cc(NC(=O)CCN4CCCC4)ccc23)cc1 the listed viability, T/C is 84.9

====

# Test system: 633275-114-R-J1-PDC complex spheroids, viability
# procedure.text: Anticancer human tumor 633275-114-R-J1-PDC cell line growth inhibition [GQUAD];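 note: spheroids exposed to the agents for seven days; percent of DMSO vehicle control viability which is 100%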
# experimental.parameters: second compound 0.1 µM; first compound 1 µM; stronger effect = lower value
endpoint.label: viability, T/C

# molecule, viability, T/C
data = [
    ("COc1cccc2c1C(=O)c1c(O)c3c(c(O)c1C2=O)CC(O)(C(=O)CO)CC3OC1CC(N)C(O)C(C)O1 (stereo unspecified) + Cc1cnc(CNC(=O)c2c(=O)c3ccc(N4CCCN(C)CC4)nc3n3c2sc2ccccc23)cn1", "19.1%"),
]

For record CC(C)n1c(=O)n(C)c2cnc3cc(F)c(-c4ccc(OCCCN5CCCCC5)nc4)cc3c21 + Cc1[nH]c2ccc(F)cc2c1-c1nc2c3cccnc3c3ncccc3c2[nH]1 the listed viability, T/C is 101%

For record Nc1ccn(C2OC(CO)C(O)C2(F)F)c(=O)n1 (stereo unspecified) + Cc1cnc(CNC(=O)c2c(=O)c3ccc(N4CCCN(C)CC4)nc3n3c2sc2ccccc23)cn1 the listed viability, T/C is 19.9%

For record Cc1cccc(N(C)C(=O)C2C(O)CCN2c2nc(C)cc(C(F)(F)F)c2C#N)c1 (stereo unspecified) + Cc1[nH]c2ccc(F)cc2c1-c1nc2c3cccnc3c3ncccc3c2[nH]1 the listed viability, T/C is 94.3%

For record O=c1[nH]cc(F)c(=O)[nH]1 + Cc1cnc(CNC(=O)c2c(=O)c3ccc(N4CCCN(C)CC4)nc3n3c2sc2ccccc23)cn1 the listed viability, T/C is 48.5%

For record CC1COCCN1c1cc(-c2ccnn2C)c2ccnc(-c3ccn[nH]3)c2n1 (stereo unspecified) + Cc1[nH]c2ccc(F)cc2c1-c1nc2c3cccnc3c3ncccc3c2[nH]1 the listed viability, T/C is 26.3%
